- Test system: Escherichia coli TOP10
- protocol notes: shrunken log2 fold change of peptide-encoding DNA abundance (4.5 h post-induction vs induction); higher = less antimicrobial activity (less host growth inhibition)
- condition info: time post-induction: 4.5 h; library: site-saturation at positions 5, 18, 19, 20
Measured shrunken log2 fold change of individual entries
The reply should be a number, written without any unit.

[[record]]
item_sequence = "RRIRCRPPRLPRPRPRPGCRPRP"
meas_value = 0.569

[[record]]
item_sequence = "RRIRVRPPRLPRPRPRPTTKPRP"
meas_value = -0.162

[[record]]
item_sequence = "RRIRARPPRLPRPRPRPTKLPRP"
meas_value = -0.00644


Which shrunken log2 fold change reading was recorded for the sequence "RRIRYRPPRLPRPRPRPRYDPRP" ? -0.21

What would you report for "RRIRCRPPRLPRPRPRPRHEPRP" ? -0.117

Continue with "RRIRTRPPRLPRPRPRPMVLPRP" -0.0596

And for "RRIRSRPPRLPRPRPRPPQDPRP" ? 0.264

Would you kindly repeat that for "RRIRQRPPRLPRPRPRPPGKPRP" ? 0.0921

Ok, now "RRIRLRPPRLPRPRPRPQCYPRP" -0.172

Moving on to the next sequence: "RRIRNRPPRLPRPRPRPNGHPRP" -0.41

----------
- Test system: Escherichia coli TOP10
- protocol notes: shrunken log2 fold change of peptide-encoding DNA abundance (4.5 h post-induction vs induction); higher = less antimicrobial activity (less host growth inhibition)
- condition info: time post-induction: 4.5 h; library: site-saturation at positions 5, 18, 19, 20
Given measured shrunken log2 fold change, output met if it is greater than or equal to -0.001 and not met if not.

[[record]]
item_sequence = "RRIRVRPPRLPRPRPRPSLKPRP"
classification = "met"


Okay, now this sequence:
Test whether the sequence "RRIRHRPPRLPRPRPRPRCGPRP" records shrunken log2 fold change of -0.001 or higher. met

----------
- Tested on: Escherichia coli TOP10
- protocol notes: shrunken log2 fold change of peptide-encoding DNA abundance (4.5 h post-induction vs induction); higher = less antimicrobial activity (less host growth inhibition)
- condition info: time post-induction: 4.5 h; library: site-saturation at positions 5, 18, 19, 20
Class definitions on shrunken log2 fold change: lower level = under -0.2, middle level = from -0.2 up to 0.009, upper level = 0.009 and over

Sample answers from the record:
[[record]]
item_sequence = "RRIRTRPPRLPRPRPRPTKIPRP"
system = "Escherichia coli TOP10"
classification = "middle level"

[[record]]
item_sequence = "RRIRYRPPRLPRPRPRPYTNPRP"
system = "Escherichia coli TOP10"
classification = "lower level"

[[record]]
item_sequence = "RRIRFRPPRLPRPRPRPKTHPRP"
system = "Escherichia coli TOP10"
classification = "middle level"

[[record]]
item_sequence = "RRIRMRPPRLPRPRPRPCYGPRP"
system = "Escherichia coli TOP10"
classification = "lower level"

[[record]]
item_sequence = "RRIRVRPPRLPRPRPRPGYVPRP"
system = "Escherichia coli TOP10"
classification = "lower level"

[[record]]
item_sequence = "RRIRIRPPRLPRPRPRPRWRPRP"
system = "Escherichia coli TOP10"
classification = "upper level"

[[record]]
item_sequence = "RRIRNRPPRLPRPRPRPSCSPRP"
system = "Escherichia coli TOP10"
classification = "lower level"

[[record]]
item_sequence = "RRIRKRPPRLPRPRPRPVNRPRP"
system = "Escherichia coli TOP10"
classification = "upper level"

[[record]]
item_sequence = "RRIRCRPPRLPRPRPRPQHAPRP"
system = "Escherichia coli TOP10"
classification = "middle level"

[[record]]
item_sequence = "RRIRRRPPRLPRPRPRPICNPRP"
system = "Escherichia coli TOP10"
classification = "middle level"


State the class of the sequence shown: "RRIRYRPPRLPRPRPRPAWEPRP" upper level

Now consider "RRIRDRPPRLPRPRPRPLNFPRP" and answer again. middle level

Cool, now "RRIRARPPRLPRPRPRPDFNPRP" upper level

What do you get for "RRIRPRPPRLPRPRPRPAYSPRP" ? lower level

----------
- Tested on: Escherichia coli TOP10
- protocol notes: shrunken log2 fold change of peptide-encoding DNA abundance (4.5 h post-induction vs induction); higher = less antimicrobial activity (less host growth inhibition)
- condition info: time post-induction: 4.5 h; library: site-saturation at positions 5, 18, 19, 20
Reported shrunken log2 fold change is given for each of the following sequences.

Would you please look over these solved cases?
[[record]]
item_sequence = "RRIRYRPPRLPRPRPRPSIAPRP"
meas_value = -0.216

[[record]]
item_sequence = "RRIRKRPPRLPRPRPRPFMGPRP"
meas_value = 0.00448

[[record]]
item_sequence = "RRIRIRPPRLPRPRPRPNQTPRP"
meas_value = -0.00271

[[record]]
item_sequence = "RRIRFRPPRLPRPRPRPFSSPRP"
meas_value = -0.468

[[record]]
item_sequence = "RRIRERPPRLPRPRPRPKHRPRP"
meas_value = -0.457


Which shrunken log2 fold change reading was recorded for the sequence "RRIRHRPPRLPRPRPRPDPHPRP" ? 0.000754

Also "RRIRKRPPRLPRPRPRPHQTPRP" , if possible. 0.202

Another sequence to check: "RRIRTRPPRLPRPRPRPQYDPRP" -0.0819

----------
- Tested on: Escherichia coli TOP10
- protocol notes: shrunken log2 fold change of peptide-encoding DNA abundance (4.5 h post-induction vs induction); higher = less antimicrobial activity (less host growth inhibition)
- condition info: time post-induction: 4.5 h; library: site-saturation at positions 5, 18, 19, 20
measured endpoint: shrunken log2 fold change
Simply state the number, no unit and no words.

[[record]]
item_sequence = "RRIRLRPPRLPRPRPRPGFTPRP"
system = "Escherichia coli TOP10"
meas_value = -0.191

[[record]]
item_sequence = "RRIRCRPPRLPRPRPRPMYQPRP"
system = "Escherichia coli TOP10"
meas_value = -0.265

[[record]]
item_sequence = "RRIRHRPPRLPRPRPRPDEFPRP"
system = "Escherichia coli TOP10"
meas_value = -0.0223

[[record]]
item_sequence = "RRIRSRPPRLPRPRPRPFYGPRP"
system = "Escherichia coli TOP10"
meas_value = -0.507

[[record]]
item_sequence = "RRIRNRPPRLPRPRPRPCGIPRP"
system = "Escherichia coli TOP10"
meas_value = -0.138


Given the entry "RRIRGRPPRLPRPRPRPAVWPRP" , report its measured shrunken log2 fold change. 0.71

Moving on to the next sequence: "RRIRERPPRLPRPRPRPCQCPRP" -0.0543

Ok, now "RRIRPRPPRLPRPRPRPQYVPRP" -0.184

----------
Measured shrunken log2 fold change, listed per entry for reference.
- Tested on: Escherichia coli TOP10
- protocol notes: shrunken log2 fold change of peptide-encoding DNA abundance (4.5 h post-induction vs induction); higher = less antimicrobial activity (less host growth inhibition)
- condition info: time post-induction: 4.5 h; library: site-saturation at positions 5, 18, 19, 20
// print number alone

[[record]]
item_sequence = "RRIRQRPPRLPRPRPRPVCNPRP"
meas_value = -0.0714

[[record]]
item_sequence = "RRIRFRPPRLPRPRPRPGDNPRP"
meas_value = -0.0236

[[record]]
item_sequence = "RRIRWRPPRLPRPRPRPDCMPRP"
meas_value = 0.259

[[record]]
item_sequence = "RRIRARPPRLPRPRPRPQQMPRP"
meas_value = 0.12

[[record]]
item_sequence = "RRIRDRPPRLPRPRPRPMGWPRP"
meas_value = 0.476

[[record]]
item_sequence = "RRIRPRPPRLPRPRPRPHVPPRP"
meas_value = 3.25


GET /values?readout=shrunken log2 fold change&item= "RRIRVRPPRLPRPRPRPMCAPRP" 0.137

"RRIRSRPPRLPRPRPRPCGEPRP" , same question. 0.385

Another sequence: "RRIRYRPPRLPRPRPRPQYFPRP" -1.64

How about this sequence: "RRIRSRPPRLPRPRPRPWNQPRP" 0.0379

Now give it for "RRIRKRPPRLPRPRPRPKINPRP" too. -0.116

----------
- System: Escherichia coli TOP10;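 also: peptides expressed intracellularly from a pBAD plasmid library in pooled LB shake-flask culture, induced with 0.3% L-arabinose, DNA abundance read by NGS, three biological replicates, DESeq2 with apeglm shrinkage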
- protocol notes: shrunken log2 fold change of peptide-encoding DNA abundance (4.5 h post-induction vs induction); higher = less antimicrobial activity (less host growth inhibition)
- condition info: time post-induction: 4.5 h; library: site-saturation at positions 5, 18, 19, 20
Listed next: entries and their corresponding shrunken log2 fold change.
Format: numeric value only, no unit, no commentary.

Look over these answered cases.
[[record]]
item_sequence = "RRIRGRPPRLPRPRPRPKFFPRP"
meas_value = 0.36

[[record]]
item_sequence = "RRIRTRPPRLPRPRPRPFCPPRP"
meas_value = -0.279

[[record]]
item_sequence = "RRIRMRPPRLPRPRPRPGQYPRP"
meas_value = -0.00987

[[record]]
item_sequence = "RRIRARPPRLPRPRPRPVIVPRP"
meas_value = 0.142


Which value of shrunken log2 fold change has been reported for "RRIRPRPPRLPRPRPRPKWEPRP" in the records? -0.0741

What would you report for "RRIRQRPPRLPRPRPRPYVNPRP" ? -0.00544

And "RRIRPRPPRLPRPRPRPYDPPRP" ? -0.301

Request: "RRIRHRPPRLPRPRPRPDYFPRP" 0.0294

Data credit: the supplement of paper PMC9112550
